The measurements presented in this section are drawn from patent US7723368B2.

In this section, each of the compounds is paired with its reported pIC50.
Target: UniProt P56817
Test: BACE1 fluorescent kinetic assay (cleavage of peptide substrate WABC-6)
Type: biochemical
Settings: Activity Table, Examples 1-108; 10 nM enzyme, 25 μM substrate WABC-6, pH 4.5, room temperature
Experimental: Evaluation of BACE1 Binding Affinity of Test Compounds Fluorescent Kinetic Assays Dilution and mixing steps: total reaction volume: 100 μL 100 μM substrate dilution in 1×PBS was prepared, and Fluorescence Readings: Readings at λex 320 nm and λem 420 nm are taken every 40 sec for 30 min at room temperature and the linear slope for substrate cleavage rate (vi) determined.
pIC50: −log10 of the molar value.

Example compounds with recorded pIC50:
- compound: "CN1C(=O)[C@@](c2ccc(OC(F)F)cc2)(c2cccc(CCCCC#N)c2)N=C1N [Example 11A]"
  pIC50: "> 7.00"
- compound: "CN1C(=O)C(c2ccc(OC(F)F)cc2)(c2cccc(NC(=O)C(F)(F)F)c2)N=C1N (centres unmarked) [Example 25]"
  pIC50: "> 7.00"
- compound: "C=CCC(F)c1cccc(C2(c3ccc(OC(F)F)cc3)N=C(N)N(C)C2=O)c1 (centres unmarked) [Example 57]"
  pIC50: "6.00 to 6.96"

# query: pIC50 of entry C/C=C/c1cc([C@@]2(c3ccc(OC(F)F)cc3)N=C(N)N(C)C2=O)ccc1F [Example 77B]
> 7.00

* * *

In this section, each of the molecules is paired with its reported pIC50.
target: human BACE1 (Homo sapiens, UniProt P56817); experiment: BACE1 fluorescent kinetic assay (cleavage of peptide substrate WABC-6); assay type: biochemical; settings: Activity Table, Examples 1-108; 10 nM enzyme, 25 μM substrate WABC-6, pH 4.5, room temperature
Sequence (P56817 46-501): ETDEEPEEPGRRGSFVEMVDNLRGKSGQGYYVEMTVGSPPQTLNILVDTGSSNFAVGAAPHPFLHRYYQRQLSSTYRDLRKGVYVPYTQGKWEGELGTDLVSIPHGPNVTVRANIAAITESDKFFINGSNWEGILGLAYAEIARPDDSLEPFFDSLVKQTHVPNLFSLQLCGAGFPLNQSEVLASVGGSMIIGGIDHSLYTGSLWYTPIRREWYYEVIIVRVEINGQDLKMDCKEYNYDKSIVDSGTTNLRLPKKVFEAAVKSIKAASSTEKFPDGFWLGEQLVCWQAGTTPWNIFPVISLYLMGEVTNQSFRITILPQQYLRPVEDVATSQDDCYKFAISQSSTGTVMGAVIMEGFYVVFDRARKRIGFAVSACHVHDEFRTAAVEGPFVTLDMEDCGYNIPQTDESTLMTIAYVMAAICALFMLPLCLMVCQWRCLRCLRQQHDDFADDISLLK
pIC50: −log10 of the molar value.

Example molecules with recorded pIC50:
- molecule: "CN1C(=O)C(c2ccc(OC(F)F)cc2)(c2cccc(NC(=O)c3ccco3)c2)N=C1N (centres unmarked) [Example 33]"
  pIC50: "> 7.00"
- molecule: "C=CCCOc1cccc(C2(c3ccc(OC(F)F)cc3)N=C(N)N(C)C2=O)c1 (centres unmarked) [Example 8]"
  pIC50: "> 7.00"
- molecule: "C=CC(C)COc1cccc([C@@]2(c3ccc(OC(F)F)cc3)N=C(N)N(C)C2=O)c1 (some centres unmarked) [Example 10F]"
  pIC50: "> 7.00"
- molecule: "CN1C(=O)[C@](c2ccc(OC(F)F)cc2)(c2ccc(F)c(C#CCF)c2)N=C1N [Example 108]"
  pIC50: "< 6.00"
- molecule: "CC(C)NCc1cccc(C2(c3ccc(OC(F)F)cc3)N=C(N)N(C)C2=O)c1 (centres unmarked) [Example 61]"
  pIC50: "6.00 to 6.96"

# query: pIC50 of entry C=CCOc1cccc([C@@]2(c3ccc(OC(F)F)cc3)N=C(N)N(C)C2=O)c1 [Example 10H]
> 7.00

Ok, now CN1C(=O)C(c2ccc(OC(F)F)cc2)(c2cccc(C3CC(=CCO)C3)c2)N=C1N (centres unmarked) [Example 56]
< 6.00

Ok, now CC=Cc1cc(C2(c3ccc(OC(F)F)cc3)N=C(N)N(C)C2=O)ccc1F (centres unmarked) [Example 75A]
6.00 to 6.96

* * *

molecular target: human BACE1 (Homo sapiens, UniProt P56817); test: BACE1 fluorescent kinetic assay (cleavage of peptide substrate WABC-6); type: biochemical; conditions: Activity Table, Examples 1-108; 10 nM enzyme, 25 μM substrate WABC-6, pH 4.5, room temperature
pIC50: −log10 of the molar value.
reported_property: pIC50

Example compounds with recorded pIC50:
- compound: "CCNCc1cccc(C2(c3ccc(OC(F)F)cc3)N=C(N)N(C)C2=O)c1 (centres unmarked)"
  recorded_value: "6.00 to 6.96"
- compound: "Cc1cccc(C2(c3ccc(OC(F)F)cc3)N=C(N)N(C)C2=O)c1 (centres unmarked) [Example 74]"
  recorded_value: "6.00 to 6.96"
- compound: "CN1C(=O)C(c2ccc(OC(F)F)cc2)(c2cccc(NC(=O)C3CCC3)c2)N=C1N (centres unmarked)"
  recorded_value: "6.00 to 6.96"

# query: pIC50 of entry C=CC[C@@H](C)Oc1cccc([C@@]2(c3ccc(OC(F)F)cc3)N=C(N)N(C)C2=O)c1 [Example 10D]
> 7.00

Ok, now CN1C(=O)C(c2ccc(OC(F)F)cc2)(c2ccc(F)c(CF)c2)N=C1N (centres unmarked)
6.00 to 6.96

Ok, now CN1C(=O)C(c2ccc(OC(F)F)cc2)(c2cccc(NC3CCCC3)c2)N=C1N (centres unmarked)
> 7.00

Ok, now Cc1ccccc1C1(c2ccc(OC(F)F)cc2)N=C(N)N(C)C1=O (centres unmarked)
< 6.00

Ok, now CN1C(=O)C(c2ccc(OC(F)F)cc2)(c2cccc(NC(=O)c3coc4ccccc34)c2)N=C1N (centres unmarked)
> 7.00

Ok, now CN1C(=O)C(c2ccc(OC(F)F)cc2)(c2cccc(NC(=O)c3sccc3Br)c2)N=C1N (centres unmarked)
> 7.00

Ok, now CCCCNCc1cccc(C2(c3ccc(OC(F)F)cc3)N=C(N)N(C)C2=O)c1 (centres unmarked)
6.00 to 6.96

Ok, now CC(C)CNc1cccc(C2(c3ccc(OC(F)F)cc3)N=C(N)N(C)C2=O)c1 (centres unmarked)
> 7.00

Ok, now CN1C(=O)C(c2ccc(OC(F)F)cc2)(c2ccc(F)c(N3CCOCC3)c2)N=C1N (centres unmarked)
6.00 to 6.96

Ok, now CN1C(=O)[C@](c2ccc(OC(F)F)cc2)(c2cccc(C#CCCCF)c2)N=C1N [Example 19F]
< 6.00

Ok, now CC(C)C(=O)Nc1cccc(C2(c3ccc(OC(F)F)cc3)N=C(N)N(C)C2=O)c1 (centres unmarked)
6.00 to 6.96

Ok, now C=CC[C@@H](C)c1cccc(C2(c3ccc(OC(F)F)cc3)N=C(N)N(C)C2=O)c1 (some centres unmarked)
6.00 to 6.96

Ok, now CN1C(=O)C(c2ccc(OC(F)F)cc2)(c2cccc(C3CC3)c2)N=C1N (centres unmarked)
< 6.00

Ok, now CN1C(=O)C(c2ccc(OC(F)F)cc2)(c2cccc(CN3CCCC3)c2)N=C1N (centres unmarked)
< 6.00

* * *

molecular target: human BACE1 (Homo sapiens, UniProt P56817); experiment: BACE1 fluorescent kinetic assay (cleavage of peptide substrate WABC-6); assay type: biochemical; conditions: Activity Table, Examples 1-108; 10 nM enzyme, 25 μM substrate WABC-6, pH 4.5, room temperature
pIC50: −log10 of the molar value.
In this section, each of the molecules is paired with its reported pIC50.

Example molecules with recorded pIC50:
- molecule: "CN1C(=O)C(c2ccc(OC(F)F)cc2)(c2ccc(F)c(CCCC#N)c2)N=C1N (stereo not shown) [Example 14]"
  reported_property: "pIC50"
  recorded_value: "> 7.00"
- molecule: "C=CCCOc1cccc([C@@]2(c3ccc(OC(F)F)cc3)N=C(N)N(C)C2=O)c1 [Example 10A]"
  reported_property: "pIC50"
  recorded_value: "> 7.00"
- molecule: "CC=CC(=O)Nc1cccc(C2(c3ccc(OC(F)F)cc3)N=C(N)N(C)C2=O)c1 (stereo not shown) [Example 30]"
  reported_property: "pIC50"
  recorded_value: "6.00 to 6.96"

In the following, a different molecule is considered.
# query: pIC50 of entry CN1C(=O)C(c2ccc(OC(F)F)cc2)(c2cccc(C#CCCCF)c2)N=C1N (stereo not shown) [Example 19D]
> 7.00

* * *

Target: human BACE1 (Homo sapiens)
Assay: BACE1 fluorescent kinetic assay (cleavage of peptide substrate WABC-6)
Assay type: biochemical
Settings: Activity Table, Examples 1-108; 10 nM enzyme, 25 μM substrate WABC-6, pH 4.5, room temperature
Method: Evaluation of BACE1 Binding Affinity of Test Compounds Fluorescent Kinetic Assays Dilution and mixing steps: total reaction volume: 100 μL 100 μM substrate dilution in 1×PBS was prepared, and Fluorescence Readings: Readings at λex 320 nm and λem 420 nm are taken every 40 sec for 30 min at room temperature and the linear slope for substrate cleavage rate (vi) determined.
reported_property: IC50

Example compounds with recorded IC50:
- compound: "CN1C(=O)[C@@](c2ccc(OC(F)F)cc2)(c2ccc(F)c(C#CCF)c2)N=C1N"
  recorded_value: "< 100 nM"
- compound: "C=CCCOc1cc(C2(c3ccc(OC(F)F)cc3)N=C(N)N(C)C2=O)ccc1F (centres unmarked)"
  recorded_value: "< 100 nM"
- compound: "CN1C(=O)[C@](c2ccc(OC(F)F)cc2)(c2ccc(F)c(OCCC(F)F)c2)N=C1N"
  recorded_value: "110 to 1000 nM"

# query: IC50 of entry C=CCCC(F)c1cc(C2(c3ccc(OC(F)F)cc3)N=C(N)N(C)C2=O)ccc1F (centres unmarked)
110 to 1000 nM

Ok, now CCCC(=O)Nc1cccc(C2(c3ccc(OC(F)F)cc3)N=C(N)N(C)C2=O)c1 (centres unmarked)
110 to 1000 nM

Ok, now COC/C=C(\C)c1cccc(C2(c3ccc(OC(F)F)cc3)N=C(N)N(C)C2=O)c1 (centres unmarked)
110 to 1000 nM

Ok, now CC(C)=CC(=O)Nc1cccc(C2(c3ccc(OC(F)F)cc3)N=C(N)N(C)C2=O)c1 (centres unmarked)
> 1000 nM

Ok, now CN1C(=O)C(c2ccc(OC(F)F)cc2)(c2cccc(NC(=O)c3cccs3)c2)N=C1N (centres unmarked)
110 to 1000 nM
